experiment: Olmesartan blood concentration/AUC after 7-day versus single-day dosing; assay type: in vivo, Korean healthy males; details: male, human, blood, oral, Time 4 hrs; drug taken only one day; read-out: Blood concentration (ng/mL)/Non-Compliance-1X
quantity.kind: concentration at 4 h (ng/mL)
Kindly answer with a numeric value in ng/mL, unit omitted.

GET /value?item= CCCc1nc(C(C)(C)O)c(C(=O)O)n1Cc1ccc(-c2ccccc2-c2nnn[nH]2)cc1 [olmesartan] &field=concentration at 4 h returns 760

###

experiment: Olmesartan blood concentration/AUC after 7-day versus single-day dosing; format: in vivo, Korean healthy males; conditions: male, human, blood, oral, 40 mg, Time 16 hrs; dosing every 24 hours for 7 days; read-out: Blood concentration (ng/mL)/Compliance-7X
quantity.kind: concentration at 16 h (ng/mL)
Numbers only here, please. The scale is ng/mL.

The recorded concentration at 16 h for entry CCCc1nc(C(C)(C)O)c(C(=O)O)n1Cc1ccc(-c2ccccc2-c2nnn[nH]2)cc1 equals 123
